- protocolDetails: Metabolic stability in mouse liver microsomes assessed as intrinsic clearance at 1 uM preincubated for 5 mins followed by NADPH addition and measured upto 60 min by LC-MS/MS analysis
- Assay type: ADME, Microsome
- experimentalParameters: time < 65 min, read-out: CLH
Measured CLint scaled at 1 µM accompanies every entry in the list below.

molecule | CLint scaled at 1 µM, L/h/kg
CN(C)c1cc(F)nc(N2[C@@H]3CCC[C@H]2c2cnc(-c4ncccn4)nc2C3)c1 (single isomer, unassigned) | 4.88
CN(C)c1cc(F)nc(N2[C@H]3CC[C@@H]2c2cnc(-c4ncccn4)nc2C3)c1 | 3.37

----------
# AUC(0-t) values compiled below
- protocolDetails: AUC (0 to t) in ICR mouse at 1 mg/kg, iv by UPLC-MS/MS analysis
- Type: ADME, organism-based
- Design: dose 1 mg/kg, route iv
- experimentalParameters: in vivo
metric: AUC(0-t) (ng·h/mL)

compound | reportedResult
CN(C)c1cc(F)nc(N2[C@@H]3CCC[C@H]2c2cnc(-c4ncccn4)nc2C3)c1 (single isomer, unassigned) | 2480
COCCCOc1cc2c(cc1OC)-c1cc(=O)c(C(=O)O)cn1[C@H](C(C)C)C2 | 346
Fc1cc(N2CC(F)C2)cc(N2[C@H]3CC[C@@H]2c2cnc(-c4ncccn4)nc2C3)n1 | 3410

----------
Reported clearance by item:
- protocolDetails: Clearance in ICR mouse at 1 mg/kg, iv by UPLC-MS/MS analysis
- Assay type: ADME, organism-based
- experimentalParameters: in vivo

compound | clearance (mL/min/kg)
CN(C)c1cc(F)nc(N2[C@@H]3CCC[C@H]2c2cnc(-c4ncccn4)nc2C3)c1 (single isomer, unassigned) | 6.67
COCCCOc1cc2c(cc1OC)-c1cc(=O)c(C(=O)O)cn1[C@H](C(C)C)C2 | 47.8
Fc1cc(N2CC(F)C2)cc(N2[C@H]3CC[C@@H]2c2cnc(-c4ncccn4)nc2C3)n1 | 4.88

----------
- protocolDetails: Tmax in ICR mouse at 10 mg/kg, IG by UPLC-MS/MS analysis
- Format: ADME, organism-based
- experimentalParameters: in vivo, po
Some compounds, each annotated with its measured Tmax.
metric: Tmax (min)

compound | metric | endpointUnit | reportedResult
CN(C)c1cc(F)nc(N2[C@@H]3CCC[C@H]2c2cnc(-c4ncccn4)nc2C3)c1 (single isomer, unassigned) | Tmax | min | 30
COCCCOc1cc2c(cc1OC)-c1cc(=O)c(C(=O)O)cn1[C@H](C(C)C)C2 | Tmax | min | 15
Fc1cc(N2CC(F)C2)cc(N2[C@H]3CC[C@@H]2c2cnc(-c4ncccn4)nc2C3)n1 | Tmax | min | 15

----------
- protocolDetails: Metabolic stability in mouse liver microsomes assessed as parent compound remaining at 1 uM measured upto 60 min in presence of NADPH by LC-MS/MS analysis
- Assay type: ADME, Microsome
- experimentalParameters: read-out: Stability

molecule | remaining at 1 h, 1 µM / %
CS(=O)(=O)N1CCN(c2cc(F)nc(N3[C@@H]4CCC[C@H]3c3cnc(-c5ncccn5)nc3C4)c2)CC1 (single isomer, unassigned) | 85.7
COC1CN(c2cc(F)nc(N3[C@@H]4CCC[C@H]3c3cnc(-c5ncccn5)nc3C4)c2)C1 (single isomer, unassigned) | 80.4
CN(C)c1cc(F)nc(N2[C@@H]3CCC[C@H]2c2cnc(-c4ncccn4)nc2C3)c1 (single isomer, unassigned) | 52.4
CN(C)c1cc(F)nc(N2[C@H]3CC[C@@H]2c2cnc(-c4ncccn4)nc2C3)c1 | 63.9

----------
- protocolDetails: Metabolic stability in human liver microsomes assessed as parent compound remaining at 1 uM measured upto 60 min in presence of NADPH by LC-MS/MS analysis
- Assay type: ADME, Microsome
- experimentalParameters: read-out: Stability

molecule | endpointUnit | remaining at 1 h, 1 µM
COC1CN(c2cc(F)nc(N3[C@H]4CC[C@@H]3c3cnc(-c5ncccn5)nc3C4)c2)C1 | % | 105
COc1cc(N2[C@H]3CC[C@@H]2c2cnc(-c4ncccn4)nc2C3)cc(F)c1F | % | 99.1
Fc1cc(N2CC(F)C2)cc(N2[C@H]3CC[C@@H]2c2cnc(-c4ncccn4)nc2C3)n1 | % | 99.7
CN(C)c1cc(F)nc(N2[C@@H]3CCC[C@H]2c2cnc(-c4ncccn4)nc2C3)c1 (single isomer, unassigned) | % | 69
CN(C)c1cc(F)nc(N2[C@H]3CC[C@@H]2c2cnc(-c4ncccn4)nc2C3)c1 | % | 86.2
CS(=O)(=O)N1CCN(c2cc(F)nc(N3[C@@H]4CCC[C@H]3c3cnc(-c5ncccn5)nc3C4)c2)CC1 (single isomer, unassigned) | % | 94
COC1CN(c2cc(F)nc(N3[C@@H]4CCC[C@H]3c3cnc(-c5ncccn5)nc3C4)c2)C1 (single isomer, unassigned) | % | 92.3

----------
- Test system: Hepatitis B virus
- protocolDetails: Antiviral activity against HBV infected in human HepG2.2.15 cells assessed as inhibition of HBsAg level incubated for 6 days with replacement of fresh media for every 72 hrs by real-time qPCR analysis
- Type: functional, organism-based
pEC50: −log10 of the molar value.
Recorded measurements of pEC50, one per entry

compound | testedSystem | inequalitySign | pEC50
CS(=O)(=O)N1CCN(c2cc(F)nc(N3[C@@H]4CCC[C@H]3c3cnc(-c5ncccn5)nc3C4)c2)CC1 (single isomer, unassigned) | Hepatitis B virus | = | 7.60
COCCN(C)c1cc(F)nc(N2[C@H]3CC[C@@H]2c2cnc(-c4ncccn4)nc2C3)c1 | Hepatitis B virus | = | 7.51
Fc1cc(N2CCOCC2)cc(N2[C@H]3CC[C@@H]2c2cnc(-c4ncccn4)nc2C3)n1 | Hepatitis B virus | = | 7.27
COCCNc1cc(F)nc(N2[C@H]3CC[C@@H]2c2cnc(-c4ncccn4)nc2C3)c1 | Hepatitis B virus | = | 7.03
COCCOc1cc(F)nc(N2[C@H]3CC[C@@H]2c2cnc(-c4ncccn4)nc2C3)c1 | Hepatitis B virus | = | 7.14
COC1CCN(c2cc(F)nc(N3[C@H]4CC[C@@H]3c3cnc(-c5ncccn5)nc3C4)c2)C1 (stereo partly specified) | Hepatitis B virus | = | 6.71
CN(C)c1cc(N2[C@H]3CC[C@@H]2c2cnc(-c4ncccn4)nc2C3)cc(F)n1 | Hepatitis B virus | = | 5.61
CN(C)c1cc(F)nc(N2[C@@H]3CCC[C@H]2c2cnc(-c4ccccn4)nc2C3)c1 (single isomer, unassigned) | Hepatitis B virus | < | 5.00
Fc1cc(N2CC(F)C2)cc(N2[C@@H]3CCC[C@H]2c2cnc(-c4ncccn4)nc2C3)n1 (single isomer, unassigned) | Hepatitis B virus | = | 7.92
CN(C)c1cc(F)nc(N2[C@@H]3CCC[C@H]2c2cnc(-c4ncccn4)nc2C3)c1 (single isomer, unassigned) | Hepatitis B virus | = | 7.85
COCCN(C)c1cc(F)nc(N2C[C@@H]3CC[C@H]2c2cnc(-c4ncccn4)nc23)c1 | Hepatitis B virus | < | 5.00
Fc1cc(N2CC(F)C2)cc(N2[C@@H]3CCC[C@H]2c2cnc(-c4ccccn4)nc2C3)n1 (single isomer, unassigned) | Hepatitis B virus | < | 5.00
Fc1cc(NCC2CC2)cc(N2[C@H]3CC[C@@H]2c2cnc(-c4ncccn4)nc2C3)n1 | Hepatitis B virus | = | 6.97
COc1cc(F)nc(N2[C@@H]3CCC[C@H]2c2cnc(-c4ncccn4)nc2C3)c1 (single isomer, unassigned) | Hepatitis B virus | = | 7.59
CN(C)c1cc(F)nc(N2[C@H]3CC[C@@H]2c2cnc(-c4ncccn4)nc2C3)c1 | Hepatitis B virus | = | 7.39
COCCN(C)c1cc(F)nc(N2C[C@H]3CC[C@@H]2c2cnc(-c4ncccn4)nc23)c1 | Hepatitis B virus | = | 6.61
COc1cc(N2[C@H]3CC[C@@H]2c2cnc(-c4ncccn4)nc2C3)cc(F)c1F | Hepatitis B virus | = | 6.35
Fc1cc(N2CC(F)C2)cc(N2[C@H]3CC[C@@H]2c2cnc(-c4ncccn4)nc2C3)n1 | Hepatitis B virus | = | 7.36
COC1CN(c2cc(F)nc(N3[C@@H]4CCC[C@H]3c3cnc(-c5ncccn5)nc3C4)c2)C1 (single isomer, unassigned) | Hepatitis B virus | = | 7.80
COC1CN(c2cc(F)nc(N3[C@H]4CC[C@@H]3c3cnc(-c5ncccn5)nc3C4)c2)C1 | Hepatitis B virus | = | 6.94
COCCCOc1cc2c(cc1OC)-c1cc(=O)c(C(=O)O)cn1[C@H](C(C)C)C2 | Hepatitis B virus | = | 8.22

----------
- protocolDetails: Cmax in ICR mouse at 10 mg/kg, IG by UPLC-MS/MS analysis
- Type: ADME, organism-based
- Set-up: dose 10 mg/kg, route ig
- experimentalParameters: in vivo, po
Below, each of the compounds is paired with its reported Cmax value.

compound | Cmax, ng/mL
Fc1cc(N2CC(F)C2)cc(N2[C@H]3CC[C@@H]2c2cnc(-c4ncccn4)nc2C3)n1 | 9580
CN(C)c1cc(F)nc(N2[C@@H]3CCC[C@H]2c2cnc(-c4ncccn4)nc2C3)c1 (single isomer, unassigned) | 9900
COCCCOc1cc2c(cc1OC)-c1cc(=O)c(C(=O)O)cn1[C@H](C(C)C)C2 | 1100

Source: ChEMBL document CHEMBL5370548
